- Test system: IL-6 in HFLS-RA cells
- Test name: Effect on HFLS-RA cytokine secretion, IL-6 (ELISA)
- Assay type: cell-based, human
- Set-up: unit not given here
- Assay conditions: supernatant content, TNF-α 10 ng/mL, test sample 100 µg/mL, 48 h culture, x ± s
Result type: IL-6
One number for each entry.

C[C@H](C(=O)O)c1ccc(C[C@H]2CCC[C@@H]2OC(=O)C(CS)N(C)C)cc1 (stereo partly shown)	47.88
C[C@H](C(=O)OCCN1C(=O)CCC1=O)c1ccc(C[C@H]2CCC[C@@H]2O)cc1	46.82
CCCC(=O)O[C@H]1CCC[C@@H]1Cc1ccc([C@H](C)C(=O)O)cc1 [Control 1, reference compound]	67.45

Now consider the entry below.
IN: Would you mind telling me what IL-6 value was observed for `CCN(CC)CCOCC(=O)O[C@H]1CCC[C@@H]1Cc1ccc([C@H](C)C(=O)O)cc1` ?
OUT: 48.01
